The following binders are listed with their measured pKd values.
- SYSTEM NAME: T1, Spike (BA.4/5) (SARS-CoV-2, Omicron BA.4/5, strain)
- T1 construct: source: bought: Sino Biological
- PROCEDURE DETAILS: SPR
- EXPERIMENTAL PARAMETERS: both partners purified
pKd: −log10 of the molar value.

BINDER	pKd
TH003 (antibody, V domains shown, IgG1 (D2:p3)) VH: EVRLLESGGGLVQPGGSLRLSCAASGFTFNDYAMSWVRQAPGEGLEWVSTISYSGGSTYYADSVKGRFTISRDNSKNMLYLQMNSLRAEDTALYYCANGVATADWYFDLWGRGTLVTVSS VL: QSALTQPRSVSGSPGQSVTISCTGTSSDVGGYNYVSWFQHHPGKAPKLMIYDVTDRPSGVPDRFSGSKSGNTASLTISGLQAEDAADYYCCSYAGTYTVFGGGTKLTVL	8.80
TH272 (antibody, V domains shown, IgG1 (D2:p3)) VH: QITLKESGPTLVKPTQTLTLTCTFSGFSLSTGGVSVGWIRQPPGKALEWLALIYWDDDKRYSPSLESRLTITKDTSKNLVVLTLTNMDPVDTATYYCAHKTIPTIFDYWGQGTLVTVSS VL: QSALTQPASVSGSPGQSITISCTATSSDVGAYQYVSWYQQYPGKAPKLMIYEVSKRPSGVSNRFSGSKSGNTASLTISGLQAEDDAYYYCNSYTTSSVVFGGGTKLTVL	12.01
TH027 (antibody, V domains shown, IgG1 (D2:p3)) VH: QITLKESGLTLVRPTQTLTLTCTFSGFSLINSGVGVGWIRQPPGKALEWLALIYWDDDKRYNPSLRSRLTISKATSKNQVVLTMTNMDPVDTATYYCTHRGPGHNTPIYFEFWGQGALVTVSS VL: QSVLTQSPSASGTPGQRVTISCSGSRSNIGSNFVYWFHQLPGTAPKLLIHSNDQRPSGVPDRFSGSNSGTSASLAISGLRSEDEADYYCAAWDDSLSSWVFGGGTKLTVL	8.73
